# METHOD SUMMARY: Rat cisplatin IP PK study, total platinum by ICP-MS
# Type: in vivo
# COND: dosed at 12 mg/kg IP; read-out: Cmax concentrations in perilymph and cochlear tissues
MEASUREMENT TYPE: Cmax

> print(dat)
                       compound  measurement.type           result
1  N.N.[Cl][Pt][Cl] [cisplatin]              Cmax  2300 to 3000 nM

====

# System: outer hair cells (OHCs) and inner hair cells (IHCs)
# METHOD SUMMARY: Cochlear explant model: hair cell protection against cisplatin
# Format: cell-based, Sprague-Dawley rats
# COND: Rattus norvegicus, read-out: Ex-vivo Efficacy Conc. for complete protection of hair cells (uM)
Form field: EC100 (one value per entry).
MEASUREMENT TYPE: EC100

> print(dat)
                                    molecule        result
 1                 CCCc1cc(=O)[nH]c(=S)[nH]1  50 to 100 µM
 2                  COc1cc(=O)[nH]c(=S)[nH]1  50 to 100 µM
 3  Nc1nc2c(ncn2[C@H]2C[C@H](O)[C@@H](CO)O2)c(=S)[nH]1        100 µM
 4                      O=c1cc[nH]c(=S)[nH]1  50 to 100 µM
 5                         Sc1ncnc2nc[nH]c12  50 to 100 µM
 6     CC(=O)c1c[nH]c(=S)n(-c2ccc(C)cc2)c1=O        500 µM
 7                O=C(O)c1c[nH]c(=S)[nH]c1=O  50 to 100 µM
 8  CSCC[C@@H](N)C(=O)O [D-methionine, reference compound]      10000 µM
 9  Nc1nc2c(ncn2[C@@H]2O[C@H](CO)[C@@H](O)[C@H]2O)c(=S)[nH]1  50 to 100 µM
10           O=c1cc(-c2ccccc2)[nH]c(=S)[nH]1         50 µM
11                  Nc1nc2nc[nH]c2c(=S)[nH]1  50 to 100 µM

====

# METHOD SUMMARY: Pharmacokinetic study after intratympanic administration
# Type: in vivo, rats
# COND: cochlear epithelium, 24 h after dosing
Form field: In vivo PK in Cochlear Epithelium (24 h after dosing) (one value per entry).
MEASUREMENT TYPE: In vivo PK in Cochlear Epithelium (24 h after dosing)

> print(dat)
                                   compound          result
1  CCCc1cc(=O)[nH]c(=S)[nH]1 [OMY-141, 6-propyl-2-thiouracil]   ~300 ng/gm CE
2  O=c1cc(-c2ccccc2)[nH]c(=S)[nH]1 [OMY-150, 6-phenyl-2-thiouracil]  ~1000 ng/gm CE
3  CSCC[C@@H](N)C(=O)O [D-methionine, reference compound]   ~200 ng/gm CE
4  O=S([O-])([O-])=S.[Na+].[Na+] [STS, sodium thiosulfate, reference compound]  ~1100 ng/gm CE

====

# METHOD SUMMARY: Cisplatin binding, % bound
MEASUREMENT TYPE: Cisplatin Binding % bound (in 30 min) at 1:10 ratio (%)

> print(dat)
                                   molecule  numeric.result
1           O=c1cc(-c2ccccc2)[nH]c(=S)[nH]1              97
2  Nc1nc2c(ncn2[C@H]2C[C@H](O)[C@@H](CO)O2)c(=S)[nH]1              50
3                  Nc1nc2nc[nH]c2c(=S)[nH]1              80
4                         Sc1ncnc2nc[nH]c12              60
5  CSCC[C@@H](N)C(=O)O [D-methionine, reference compound]              40
6                 CCCc1cc(=O)[nH]c(=S)[nH]1              95
7  O=S([O-])([O-])=S.[Na+].[Na+] [STS, sodium thiosulfate, reference compound]              50
8                O=C(O)c1c[nH]c(=S)[nH]c1=O              95

====

# METHOD SUMMARY: Rat cisplatin IP PK study, total platinum by ICP-MS
# Type: in vivo
# COND: dosed at 10 mg/kg IP; read-out: Cmax concentrations in perilymph and cochlear tissues
MEASUREMENT TYPE: Cmax

> print(dat)
                       compound  measurement.type           result
1  N.N.[Cl][Pt][Cl] [cisplatin]              Cmax  2300 to 2500 nM
